Cited source: ChEMBL document CHEMBL5604062

Entries and their IC50 values follow.
Target: Nonstructural protein 3 (Zika virus, UniProt A0A024AXB9)
Sequence (A0A024AXB9 whole entry): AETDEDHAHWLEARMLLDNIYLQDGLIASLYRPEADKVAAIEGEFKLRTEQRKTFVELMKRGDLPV
Test: Functional biochemical assay to identify treatments for viral infectious disease that targets Zika NS2B-NS3 protease. Utilizing a direct enzyme activity measurement method, reading the fluorescence intensity is used to characterize the relative potency of inhibitors as IC50.
Parameters: species or system PRVABC59

> print(dat)
                                   molecule                       experimental.system    reading
1  CC[C@H]1CN(C(=O)Nc2ccc3c(c2)CNC3)C[C@@H]1c1ccc(OC)cc1  Nonstructural protein 3 (Zika virus, UniProt A0A024AXB9)    > 25 µM
2           [O-][S@@+](Cc1ncccn1)c1ncccc1Br  Nonstructural protein 3 (Zika virus, UniProt A0A024AXB9)  > 99.5 µM
3       Cc1nc(C2CC2)sc1C(=O)Nc1cc(CCCN)ccn1  Nonstructural protein 3 (Zika virus, UniProt A0A024AXB9)    > 25 µM
4  c1cnc2[nH]cc(C3CCN(Cc4c[nH]c5cnccc45)CC3)c2c1  Nonstructural protein 3 (Zika virus, UniProt A0A024AXB9)  > 99.5 µM

For `O=C(O)c1cc(Cl)cc(NS(=O)(=O)c2ccc(-c3ccc(F)cc3)cc2)c1` , what is its reported IC50?
75.7 µM

Then what about the molecule `NCc1cccc(NC(=O)c2ccc(OCc3ccccc3)cc2)c1` ?
> 99.5 µM

Field entry: `COc1cc(COc2cncc3ccccc23)nc(N2CCNCC2)n1`
> 99.5 µM

Repeat for the following molecule: `O=C(Nc1ccc2c(c1)CN[C@H]2CO)c1cc(F)cc2[nH]ncc12`
0.125 µM

Again, but for `c1ccc2c(CNC3CCN(Cc4cscn4)CC3)c[nH]c2c1`
> 99.5 µM

----------
Biological target: Nonstructural protein 3 (Zika virus)
Assay: Functional biochemical assay to identify treatments for viral infectious disease that targets Zika NS2B-NS3 protease. Utilizing a direct enzyme activity measurement method, reading the fluorescence intensity is used to characterize the relative potency of inhibitors as IC50.
Set-up: species or system PRVABC59
Reported Endpoint: IC50 (µM)
State just the number; it will be interpreted in µM.

> print(dat)
                               input.smiles  reading
1  CN(C)C(=O)C[C@H]1NCc2cc(NC(=O)c3cc(F)cc4[nH]ncc34)ccc21    0.487
2  O=C(Nc1ccc2c(c1)CN(CC(F)F)C2)c1cc(Cl)cc2[nH]ncc12      3.8
3  NCc1cccc(NC(=O)c2c(F)c(Cl)cc(NC(=O)OCc3ccccc3)c2F)c1     55.6
4  O=C(O)c1cc2cc(-c3cc(Cl)cc(C4CC4)c3)ccc2[nH]1     32.9
5  NCc1cccc(NC(=O)[C@H](NC(=O)OCc2ccccc2)c2cccc(-c3ccnc(N)c3)c2)c1     48.1

Sample `O=C(Nc1ccc2c(c1)CNC2)c1n[nH]c2ccc(F)cc12` — what was its IC50?
16.9

Next up: `O=C(NCC(F)F)[C@H](Nc1ccc2c(c1)CNC2)c1cc(Cl)ccc1OC[C@H]1CCCO1`
0.129

Same question, `NCc1cccc(NC(=O)c2cc(Cl)cc(-n3cccc3)c2)c1` this time
2.7

# iterate: `NCc1cccc(NC(=O)[C@@H]2[C@@H]3CCCCC[C@@H]3[C@@H]2NC(=O)OCc2ccccc2)c1`
54.7

----------
Biological target: Nonstructural protein 3 (Zika virus, UniProt A0A024AXB9)
Test: Functional biochemical assay to identify treatments for viral infectious disease that targets Zika NS2B-NS3 protease. Utilizing a direct enzyme activity measurement method, reading the fluorescence intensity is used to characterize the relative potency of inhibitors as IC50.
Set-up: species or system PRVABC59
pIC50: −log10 of the molar value.
Reported Endpoint: pIC50

Examples with answers:
> print(dat)
                               input.smiles                       experimental.system  reading
1      c1nc(C2CCN(Cc3n[nH]c4c3COCC4)CC2)cs1  Nonstructural protein 3 (Zika virus, UniProt A0A024AXB9)   < 4.00
2    Cc1ccc(S(=O)(=O)CCCn2ccc3sccc3c2=O)cc1  Nonstructural protein 3 (Zika virus, UniProt A0A024AXB9)   < 4.00
3  CCn1c(=O)c(N2C[C@H]3CCC[C@H]2C3)nc2ccccc21  Nonstructural protein 3 (Zika virus, UniProt A0A024AXB9)   < 4.00

Next compound, please.
Which pIC50 value belongs to `NCc1cccc(NC(=O)[C@@H](NC(=O)OCc2ccccc2)c2ccc(-c3ccnc4[nH]ccc34)cc2)c1` ?
< 4.00

----------
Parameter: pIC50. Scope: all listed entries.
Biological target: Nonstructural protein 3 (Zika virus, UniProt A0A024AXB9)
Test: Functional biochemical assay to identify treatments for viral infectious disease that targets Zika NS2B-NS3 protease. Utilizing a direct enzyme activity measurement method, reading the fluorescence intensity is used to characterize the relative potency of inhibitors as IC50.
Design: species or system PRVABC59
pIC50: −log10 of the molar value.

Below are worked cases with known answers.
> print(dat)
                                   compound                       experimental.system  reported.endpoint  reading
1  N[C@H]1CCN(c2ccc(NC(=O)c3cc(Cl)cc(NC(=O)OCc4ccccc4)c3)cc2)C1  Nonstructural protein 3 (Zika virus, UniProt A0A024AXB9)              pIC50     5.11
2       CCn1ccnc(N2CC[C@@H](C(=O)NC)C2)c1=O  Nonstructural protein 3 (Zika virus, UniProt A0A024AXB9)              pIC50   < 4.00
3    CN(C)Cc1cc(Cl)cc(C(=O)Nc2cccc(CN)c2)c1  Nonstructural protein 3 (Zika virus, UniProt A0A024AXB9)              pIC50     5.10
4  O=C(O)C[C@H]1CCCN1C(=O)c1cc(Cl)cc(NC(=O)OCc2ccccc2)c1  Nonstructural protein 3 (Zika virus, UniProt A0A024AXB9)              pIC50   < 4.00

Now for another entry.
For the compound `N#Cc1ccc(N2CCN(Cc3c[nH]c4ccccc34)CC2)cc1` , what pIC50 is on record?
4.06

----------
Listed below: pIC50 values for each entry.
Target: Nonstructural protein 3 (Zika virus, UniProt A0A024AXB9)
Assay: Functional biochemical assay to identify treatments for viral infectious disease that targets Zika NS2B-NS3 protease. Utilizing a direct enzyme activity measurement method, reading the fluorescence intensity is used to characterize the relative potency of inhibitors as IC50.
Design: species or system PRVABC59
pIC50: −log10 of the molar value.

> print(dat)
                               input.smiles                       experimental.system  reading
1  Cn1nc(C2CCN(C(=O)c3ccccc3CSc3nnc[nH]3)CC2)cc1O  Nonstructural protein 3 (Zika virus, UniProt A0A024AXB9)   < 4.00
2  Cc1cc(NS(=O)(=O)c2ccc(Cl)cc2C(=O)O)nn1Cc1ccccc1  Nonstructural protein 3 (Zika virus, UniProt A0A024AXB9)   < 4.00
3  CS(=O)(=O)NCc1cccc(CNC(=O)[C@@H](NC(=O)OCc2ccccc2)c2ccc(OCc3ccccc3)cc2)c1  Nonstructural protein 3 (Zika virus, UniProt A0A024AXB9)   < 4.00

Need pIC50, item `O=C(Nc1cc(Cl)cc(C(=O)Nc2ccc([C@H]3CNCCO3)cc2)c1)OCc1ccccc1`
< 4.00

Same question for `CC(C)(C)OC(=O)N1Cc2ccc(N[C@H](C(=O)O)c3cc(Cl)cc4[nH]ncc34)cc2C1` please.
< 4.60

----------
Overview of reported pIC50 across a group of compounds:
Molecular target: Nonstructural protein 3 (Zika virus)
Assay: Functional biochemical assay to identify treatments for viral infectious disease that targets Zika NS2B-NS3 protease. Utilizing a direct enzyme activity measurement method, reading the fluorescence intensity is used to characterize the relative potency of inhibitors as IC50.
Set-up: species or system PRVABC59
pIC50: −log10 of the molar value.

Below: 5 compounds and their reported pIC50.
> print(dat)
                               input.smiles  reading
1   NCCc1cccc(NC(=O)c2cc(Cl)cc3[nH]ncc23)c1     6.20
2  O=C(Nc1cc(Cl)cc(C(=O)N2CCC(c3nn[nH]n3)CC2)c1)OCc1ccccc1   < 4.00
3  O=C(Nc1cc(Cl)cc(CNc2cccc(-c3nn[nH]n3)c2)c1)OCc1ccccc1     4.56
4            CCSc1nnc(SCCn2nc3ccccn3c2=O)s1   < 4.00
5  NCCCn1c(C2CC2)cc(C(=O)Nc2cc([C@H]3CCOC3)ccn2)c1C1CC1   < 4.60

Query: pIC50; subject: `O=C(Nc1cc(Cl)cc(C(=O)Nc2ccc([C@H]3CCNC3)cc2)c1)OCc1ccccc1`
5.26

And `NCc1cccc(NC(=O)c2cc(C(F)(F)F)nn2CC2CCC2)c1` ?
< 4.00

Follow-up item: `NCc1cccc(NC(=O)c2cccc3c2O[C@H](c2ccccc2)C(=O)N3)c1`
4.25
